Assay: NCI Yeast Anticancer Drug Screen. Data for the mlh1 rad18 strain (AID 175)
Conditions: S. cerevisiae mlh1 rad18 strain growth inhibition; at 50.0 µM (retest, dose inferred, filed as 5.0); stronger effect = higher value
Experimental: Growth inhibition of yeast strains with defined genetic alterations is measured as a screen for potential anti-cancer activity. Selected strains with alterations in DNA damage repair or cell cycle control were exposed to compounds and growth inhibition was measured relative to vehicle treated controls. The strain used in this assay is mlh1 rad18
Compounds without any hit were thinned out: in the full panel of roughly 79,000, 15% have a hit.
ENDPOINT LABEL: growth inhibition (%)
Answer in %, number only, no unit symbol.

Here's what some known entries look like.
CN(C)c1ccc(N=Cc2c([O-])ccc3ccccc23)cc1.[C-]#[O+].[C-]#[O+].[Ir]; 9
C[n+]1ccccc1-c1nc(-c2cccc[n+]2C)nc(-c2cccc[n+]2C)n1; 82

stdin: Look up and report measured growth inhibition for this entry: CCC[CH2][Sn]([CH2]CCC)([O]C(=O)C(N)CSC)[O]C(=O)C(N)CSC (stereo not given)
stdout: -18

stdin: Look up and report measured growth inhibition for this entry: CN(C)CC1CCCCC1=O (stereo not given)
stdout: -38

stdin: Look up and report measured growth inhibition for this entry: COc1cc(C(c2c(O)c3ccccc3oc2=O)c2c(O)c3ccccc3oc2=O)cc(OC)c1O
stdout: 2
